Sourced from patent US20250250357A1

# OD450 values compiled below
# Experimental Target: T1, human MSLN-R3-his protein (human, UniProt Q13421 487-598)
# T1 construct: it is put last here; also called human MSLN-R3 protein; hMSLN-R3-his; not shown: His tag
# T1 sequence (Q13421 495-606): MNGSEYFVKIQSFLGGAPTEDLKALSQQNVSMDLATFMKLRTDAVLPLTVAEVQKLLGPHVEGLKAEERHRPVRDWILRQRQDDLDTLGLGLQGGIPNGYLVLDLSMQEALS
# Experiment Description: ELISA on coated antigen, antibody 2 nM
Value expressed in OD; do not type the unit.

So what's the measured OD450 for this one? S009-F7.67.12 (antibody, human IgG1, kappa, V domains shown, Human-murine chimeric antibody, human IgG1 heavy and kappa light constant regions) VH: QVQLQQPGTELVKPGASVRLSCRASGYSFSSYWMHWVKQRPGQGLEWLGNINPTTGDINYNEKFRNRATLAVDKSSTTAYLQLTSLTSEDSAVYFCVRHDGFLWGQGTTLTVSS VL: DIQMTQSPASLSASVGETVTITCRASENIYSYLAWYQQKQGKSPQLLVYYAKTLAEGVSSRFSGSGSGTQFSLKINSLQPEDFGTYYCQHQFGTPRTFGGGTKLEIRR
2.45

Switching to the query record.
Can you look up the measured OD450 of S009-F7.25.19 (antibody, human IgG1, kappa, V domains shown, Human-murine chimeric antibody, human IgG1 heavy and kappa light constant regions) VH: QVQLQQPGTELVKPGASVKLSCKASGYTFTSYWMHWVKQRPGQGLEWIGNIIPSNGGTKYNEKFKSKATLTVDKSSSTAYMQLSSLTSEDSAVYYCSPHYYGGSPGFAYWGQGTLITVSA VL: DIVMTQSQKFMSTSVGDRVSVICKASQNVGTNVAWYQQKPGQSPKALIYSASYRYSGVPDRFTGSGSGTDFTLTISNVQSEDLAEYFCQQYNSYPLTFGGGTKLEIKR for me?
2.76
